Test: gradient 5% acetonitrile 3 min, to 50% in 2 min, to 85% in 15 min, held 3 min, 100 µL/min
Conditions: column: Zorbax Extend-C18 2.1 x 50 mm; eluents: water / acetonitrile, 0.1% formic acid
experimental_endpoint: RP-LC retention time (s)

These recorded examples may help you get a feel for the data.
{"columns": ["molecule", "experimental_endpoint", "unit_info", "experimental_result"],
 "data": [
  ["Cc1ccc(-n2nc(N3CCCC(C(=O)Nc4ccc(F)cc4F)C3)ccc2=O)cc1Cl (configuration not stated)", "RP-LC retention time", "s", 1020],
  ["COc1cccc(-c2ccc3nc(N4CCC(C(=O)N5CCCC5)CC4)sc3n2)c1", "RP-LC retention time", "s", 912],
  ["CCC(C)c1ccc(NC(=O)c2nn(C)cc2Cl)cc1 (configuration not stated)", "RP-LC retention time", "s", 1100]
]}

[P] COc1cc(=O)c(C(=O)NC(C)C)nn1-c1ccc(F)cc1
[Q] COc1cccc(-c2cc3c(=O)n(Cc4nc(-c5ccc(Cl)cc5)no4)ccn3n2)c1
Incoming: Field: entry with larger RP-LC retention time (options P / Q ). Pick one; state its label.
Outgoing: Q
(Q: 1120 s, P: 686 s)

[P] COc1ccc2nc(C(=O)NC(C)c3ccc(F)cc3)cn2n1 (configuration not stated)
[Q] CCOc1ccc(-c2ccc(=O)n(Cc3nc(-c4ccc(CC)cc4)no3)n2)cc1
Incoming: Field: entry with larger RP-LC retention time (options P / Q ). Pick one; state its label.
Outgoing: Q
(Q: 1230 s, P: 821 s)

[P] Cc1nc(-c2csc(S(=O)(=O)N3CCCC(C(=O)NCc4ccc5c(c4)OCO5)C3)c2)no1 (configuration not stated)
[Q] O=C(NCc1cccs1)C1CCCN(Cc2nc(-c3cccnc3)no2)C1 (configuration not stated)
Incoming: Quick one: lower RP-LC retention time, P or Q ? Pick one; state its label.
Outgoing: Q
(Q: 571 s, P: 880 s)

[1] Cn1c(N2CCCC(C(=O)NCCCN3CCC(Cc4ccccc4)CC3)C2)cc(=O)n(C)c1=O (configuration not stated)
[2] CCC(=O)Nc1ccc(-c2nc(-c3ccc(Cl)cc3)no2)cc1
Incoming: Field: entry with larger RP-LC retention time (options 1 / 2 ). Pick one; state its label.
Outgoing: 2

[A] Cc1nnc(N2CCCC(C(=O)NCc3ccc(F)cc3)C2)c2nn(-c3ccccc3)c(C)c12 (configuration not stated)
[B] Cc1cccc(N2CCN(C(=O)Cn3ccc4ccc(N5CCOCC5)nc43)CC2)c1C
Incoming: Field: entry with larger RP-LC retention time (options A / B ). Pick one; state its label.
Outgoing: B
(B: 1110 s, A: 720 s)

[a] COc1ccc(NC(=O)N2CCN(c3cc(C)nc(N4CCCC4)n3)CC2)c(OC)c1
[b] CCOc1ccc(NC(=O)Nc2nccn(-c3cccc(F)c3)c2=O)cc1
Incoming: Field: entry with larger RP-LC retention time (options a / b ). Pick one; state its label.
Outgoing: b

[a] CS(=O)(=O)c1ccc2nc(Nc3nc4cc5c(cc4s3)OCO5)sc2c1
[b] CC(C)c1ccc(-n2ccnc(NC(=O)Nc3cccc(F)c3)c2=O)cc1
Incoming: Quick one: lower RP-LC retention time, a or b ? Pick one; state its label.
Outgoing: a

[1] Cc1ccc(CNC(=O)C2CCCN2S(=O)(=O)c2cc3c(cc2C)NC(=O)C(C)O3)cc1 (configuration not stated)
[2] CC(C)n1c(=O)c(NCc2ccc(N3CCCCC3)cc2)nc2ccncc21
Incoming: Quick one: lower RP-LC retention time, 1 or 2 ? Pick one; state its label.
Outgoing: 2

###

Experiment: gradient 5% acetonitrile 3 min, to 50% in 2 min, to 85% in 15 min, held 3 min, 100 µL/min
Details: column: Zorbax Extend-C18 2.1 x 50 mm; eluents: water / acetonitrile, 0.1% formic acid
experimental_endpoint: RP-LC retention time (s)

[A] CN(C)c1ncccc1C(=O)NC1CCCCC1
[B] Cc1cccc(N(C(=O)Nc2ccccc2C)C2=NCCC2)c1
Incoming: Field: entry with larger RP-LC retention time (options A / B ). Pick one; state its label.
Outgoing: B

###

Test: gradient 5% acetonitrile 3 min, to 50% in 2 min, to 85% in 15 min, held 3 min, 100 µL/min
Conditions: column: Zorbax Extend-C18 2.1 x 50 mm; eluents: water / acetonitrile, 0.1% formic acid
experimental_endpoint: RP-LC retention time (s)

[a] CC(=O)N1c2ccc(S(=O)(=O)N3CCCCC3)cc2CC1C(=O)NCCN1CCCC1 (stereo not given)
[b] Brc1cccc(-c2nnc(Cc3nc(-c4ccncc4)no3)o2)c1
Incoming: Field: entry with larger RP-LC retention time (options a / b ). Pick one; state its label.
Outgoing: b
(b: 854 s, a: 592 s)

###

Assay: gradient 5% acetonitrile 3 min, to 50% in 2 min, to 85% in 15 min, held 3 min, 100 µL/min
Conditions: column: Zorbax Extend-C18 2.1 x 50 mm; eluents: water / acetonitrile, 0.1% formic acid
experimental_endpoint: RP-LC retention time (s)

These recorded examples may help you get a feel for the data.
{"columns": ["molecule", "experimental_result"],
 "data": [
  ["O=C(Cn1nc(S(=O)(=O)c2ccccc2)ccc1=O)N1CCN(c2ccccc2F)CC1", 870],
  ["Cc1ccc(C(=O)N2CCCC(COc3ccc(C(=O)N4CCCC4)cc3)C2)cc1C (stereo not given)", 940],
  ["Cc1ccsc1C(=O)NCc1ccc2c(c1)ncn2C(C)C", 616],
  ["Cc1ccc(Cl)cc1NC(=O)N(C)CC1CCOC1 (stereo not given)", 757]
]}

[1] CCN1C(=O)COc2ccc(-c3noc(-c4ccc(C#N)cc4)n3)cc21
[2] O=C(O)CC(CC(=O)NCc1ccccc1)c1ccc(Br)cc1 (stereo not given)
Incoming: Quick one: lower RP-LC retention time, 1 or 2 ? Pick one; state its label.
Outgoing: 2

###

Assay: gradient 5% acetonitrile 3 min, to 50% in 2 min, to 85% in 15 min, held 3 min, 100 µL/min
Settings: column: Zorbax Extend-C18 2.1 x 50 mm; eluents: water / acetonitrile, 0.1% formic acid
experimental_endpoint: RP-LC retention time (s)

These recorded examples may help you get a feel for the data.
{"columns": ["compound", "unit_info", "experimental_result"],
 "data": [
  ["CCc1nc(NCc2ccncc2)ncc1C(=O)O", "s", 555],
  ["COC(=O)C1=CN(c2cc(F)ccc2C)c2cc(F)ccc2S1(=O)=O", "s", 842],
  ["COc1cccc(CNC(=O)C2(C)CCCN(C(=O)Nc3ccccc3C)C2)c1 (stereo not given)", "s", 895]
]}

[1] COc1ccc(CC(=O)N2C[C@@H]3C[C@H]2C[C@@H]3NS(=O)(=O)c2ccccc2)cc1
[2] O=C(NCc1cccs1)c1c(O)c2cccnc2n(-c2cccc(F)c2)c1=O
Incoming: Field: entry with larger RP-LC retention time (options 1 / 2 ). Pick one; state its label.
Outgoing: 2
(2: 1120 s, 1: 768 s)

[a] Cc1noc(C)c1S(=O)(=O)N1CCC(Cc2nc(-c3ccncc3)n[nH]2)C1 (stereo not given)
[b] COc1cccc(NC(=O)Cn2cnc3c(sc4nc(-c5ccccc5)ccc43)c2=O)c1
Incoming: Field: entry with larger RP-LC retention time (options a / b ). Pick one; state its label.
Outgoing: b

###

Test: gradient 5% acetonitrile 3 min, to 50% in 2 min, to 85% in 15 min, held 3 min, 100 µL/min
Details: column: Zorbax Extend-C18 2.1 x 50 mm; eluents: water / acetonitrile, 0.1% formic acid
experimental_endpoint: RP-LC retention time (s)

[a] CC(C)NC(=O)c1ccc(OCC2CCN(C(=O)c3ccc(F)c(Cl)c3)CC2)cc1
[b] CCOC(=O)c1[nH]c(C)c(CCC(=O)N2CCC(C(=O)NCCCN3CCCCC3)CC2)c1C
Incoming: Quick one: lower RP-LC retention time, a or b ? Pick one; state its label.
Outgoing: b
(b: 607 s, a: 922 s)

[a] CCc1nc2cc(N3CCC(C(=O)NCc4ccc(N(C)C)cc4)CC3)cnc2nc1CC
[b] CCc1ccc(-c2ccc(SCC(=O)Nc3cc(Cl)ccc3OC)nn2)cc1
Incoming: Quick one: lower RP-LC retention time, a or b ? Pick one; state its label.
Outgoing: a
(a: 627 s, b: 1180 s)

[1] CC(C)N1CCN(C(=O)C2CC(=O)N(c3ccc4c(c3)CCN4C(=O)C3CC3)C2)CC1 (centres undefined)
[2] CC1CCN(c2nn(CC(=O)NCc3cccs3)c(=O)c3ccccc23)CC1
Incoming: Field: entry with larger RP-LC retention time (options 1 / 2 ). Pick one; state its label.
Outgoing: 2
(2: 1030 s, 1: 579 s)

[P] Cc1ccc(NC(=O)N2CCc3nc[nH]c3C2)cc1F
[Q] CCn1c(=O)c(C)nc2cc(-c3noc(C(C)NC(=O)c4ccco4)n3)ccc21 (centres undefined)
Incoming: Field: entry with larger RP-LC retention time (options P / Q ). Pick one; state its label.
Outgoing: Q
(Q: 866 s, P: 606 s)

Where do the numbers come from? From the METLIN SMRT retention time set (Domingo-Almenara et al. 2019).
